For each record, write down the corresponding koff.
- target.under.test: T1, human IFNAR-1 protein (form not stated) (human, UniProt P17181 28-436, limits assumed)
- T1 construct: bispecific ELISA
- T1 sequence (looked up): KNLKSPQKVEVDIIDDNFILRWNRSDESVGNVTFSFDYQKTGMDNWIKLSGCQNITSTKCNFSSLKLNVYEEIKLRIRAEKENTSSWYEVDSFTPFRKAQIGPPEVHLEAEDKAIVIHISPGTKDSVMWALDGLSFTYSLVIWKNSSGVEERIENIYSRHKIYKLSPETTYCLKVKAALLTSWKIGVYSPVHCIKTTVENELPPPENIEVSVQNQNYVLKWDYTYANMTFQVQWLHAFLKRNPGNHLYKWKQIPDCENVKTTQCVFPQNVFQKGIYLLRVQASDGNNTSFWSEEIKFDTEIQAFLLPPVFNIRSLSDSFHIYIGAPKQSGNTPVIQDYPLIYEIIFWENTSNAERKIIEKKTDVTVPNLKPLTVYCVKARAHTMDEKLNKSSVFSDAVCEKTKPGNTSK
- protocol.description: affinity ranking of expressed humanized 485G10 IgGs (method not named)
One number for each entry, in s⁻¹.

// worked examples, koff included
485G10 humanized VH3 + VL2 (antibody, V domains shown, Humanized IgG expressed in HEK293; also called VH3 + VL2 (485G10)) VH: QVQLVQSGAEVKKPGASVKLSCKGSGFNIKDYYIHWVKQAPGQGLEWIGRIDPEDAETKYAPKFQGRATITADTSISTAYLELSRLRSDDTVVYYCGRYHGYWALDYWGQGTLVTVSS VL: DIQMTQSPSSLSTSVGDRVTITCKTSQNVGTNVAWYQQKPGKAPKPLIYSTSYRYSGVPSRFSGSGSGTDFTLTISSLQPEDFATYYCHQYFSYPYTFGPGTKVDIK | 0.000264
485G10-H2L3 (antibody, V domains shown, Humanized IgG expressed in HEK293; also called VH2 + VL3 (485G10)) VH: QVQLVQSGAEVKKPGASVKLSCKASGFNIKDYYIHWVKQAPGQGLEWIGRIDPEDAETKYAPKFQGRVTMTADTSISTAYMELSRLRSDDTVVYYCGRYHGYWALDYWGQGTLVTVSS VL: DIQMTQSPSSLSTSVGDRVTITCKTSQNVGTNVAWYQQKPGKAPKPLIYSTSYRYSGVPSRFSGSGSGTDFTLTISSVQPEDFATYYCHQYFSYPYTFGPGTKLDIK | 0.000238
485G10 humanized VH0 + VL3 (antibody, V domains shown, Humanized IgG expressed in HEK293; also called VH0 + VL3 (485G10)) VH: QVQLVQSGAEVKKPGASVKVSCKASGFNIKDYYIHWVRQAPGQGLEWMGRIDPEDAETKYAPKFQGRVTMTRDTSISTAYMELSRLRSDDTVVYYCARYHGYWALDYWGQGTLVTVSS VL: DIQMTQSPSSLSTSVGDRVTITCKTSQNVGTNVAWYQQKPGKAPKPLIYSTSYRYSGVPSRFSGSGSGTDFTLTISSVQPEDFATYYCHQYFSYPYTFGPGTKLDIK | 0.000316
485G10 humanized VH3 + VL1 (antibody, V domains shown, Humanized IgG expressed in HEK293; also called VH3 + VL1 (485G10)) VH: QVQLVQSGAEVKKPGASVKLSCKGSGFNIKDYYIHWVKQAPGQGLEWIGRIDPEDAETKYAPKFQGRATITADTSISTAYLELSRLRSDDTVVYYCGRYHGYWALDYWGQGTLVTVSS VL: DIQMTQSPSSLSASVGDRVTITCKTSQNVGTNVAWFQQKPGKAPKSLIYSTSYRYSGVPSRFSGSGSGTDFTLTISSLQPEDFATYYCHQYFSYPYTFGPGTKVDIK | 0.0185
485G10 humanized VH3 + VL4 (antibody, V domains shown, Humanized IgG expressed in HEK293; also called VH3 + VL4 (485G10)) VH: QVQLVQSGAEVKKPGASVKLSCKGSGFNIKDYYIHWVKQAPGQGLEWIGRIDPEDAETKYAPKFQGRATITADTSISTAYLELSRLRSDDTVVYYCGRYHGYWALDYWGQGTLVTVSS VL: DIQMTQSPSSLSTSVGDRVTVTCKTSQNVGTNVAWYQQKPGKAPKPLIYSTSYRYSGVPSRFSGSGSGTDFTLTISSVQPEDFATYYCHQYFSYPYTFGPGTKLDIK | 0.000271
485G10 humanized VH3 + VL3 (antibody, V domains shown, Humanized IgG expressed in HEK293; also called VH3 + VL3 (485G10)) VH: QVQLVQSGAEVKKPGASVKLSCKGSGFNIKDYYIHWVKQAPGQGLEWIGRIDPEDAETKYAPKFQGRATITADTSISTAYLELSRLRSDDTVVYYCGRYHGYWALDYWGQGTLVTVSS VL: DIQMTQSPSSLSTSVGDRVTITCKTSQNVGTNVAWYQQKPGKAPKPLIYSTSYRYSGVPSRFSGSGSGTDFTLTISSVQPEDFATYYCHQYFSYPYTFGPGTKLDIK | 0.000279
485G10-H1L2 (antibody, V domains shown, Humanized IgG expressed in HEK293; also called VH1 + VL2 (485G10)) VH: QVQLVQSGAEVKKPGASVKVSCKASGFNIKDYYIHWVRQAPGQGLEWMGRIDPEDAETKYAPKFQGRVTMTADTSISTAYMELSRLRSDDTVVYYCARYHGYWALDYWGQGTLVTVSS VL: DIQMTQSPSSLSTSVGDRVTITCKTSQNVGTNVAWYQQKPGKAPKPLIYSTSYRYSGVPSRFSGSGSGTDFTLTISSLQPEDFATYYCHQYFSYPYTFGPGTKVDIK | 0.000201
485G10 humanized VH2 + VL1 (antibody, V domains shown, Humanized IgG expressed in HEK293; also called VH2 + VL1 (485G10)) VH: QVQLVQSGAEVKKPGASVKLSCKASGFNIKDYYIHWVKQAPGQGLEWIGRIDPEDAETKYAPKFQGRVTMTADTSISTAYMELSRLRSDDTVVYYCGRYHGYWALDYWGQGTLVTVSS VL: DIQMTQSPSSLSASVGDRVTITCKTSQNVGTNVAWFQQKPGKAPKSLIYSTSYRYSGVPSRFSGSGSGTDFTLTISSLQPEDFATYYCHQYFSYPYTFGPGTKVDIK | 0.00663

Required: koff, one value per binder below.
1. 485G10-H1L4 (antibody, V domains shown, Humanized IgG expressed in HEK293; also called VH1 + VL4 (485G10)) VH: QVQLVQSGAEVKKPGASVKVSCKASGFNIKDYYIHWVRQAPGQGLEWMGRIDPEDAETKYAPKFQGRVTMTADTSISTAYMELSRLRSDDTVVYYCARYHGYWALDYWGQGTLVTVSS VL: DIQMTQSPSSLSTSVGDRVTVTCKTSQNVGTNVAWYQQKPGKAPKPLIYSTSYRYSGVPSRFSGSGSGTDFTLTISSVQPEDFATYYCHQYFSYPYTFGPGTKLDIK
2. 485G10-H1L3 (antibody, V domains shown, Humanized IgG expressed in HEK293; also called VH1 + VL3 (485G10)) VH: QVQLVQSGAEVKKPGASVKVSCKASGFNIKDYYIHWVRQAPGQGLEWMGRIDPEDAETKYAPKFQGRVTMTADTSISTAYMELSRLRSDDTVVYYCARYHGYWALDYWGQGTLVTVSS VL: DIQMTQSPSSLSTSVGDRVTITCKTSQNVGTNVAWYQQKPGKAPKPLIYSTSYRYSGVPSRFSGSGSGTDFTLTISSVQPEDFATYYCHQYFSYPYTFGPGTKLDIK
3. 485G10 humanized VH0 + VL4 (antibody, V domains shown, Humanized IgG expressed in HEK293; also called VH0 + VL4 (485G10)) VH: QVQLVQSGAEVKKPGASVKVSCKASGFNIKDYYIHWVRQAPGQGLEWMGRIDPEDAETKYAPKFQGRVTMTRDTSISTAYMELSRLRSDDTVVYYCARYHGYWALDYWGQGTLVTVSS VL: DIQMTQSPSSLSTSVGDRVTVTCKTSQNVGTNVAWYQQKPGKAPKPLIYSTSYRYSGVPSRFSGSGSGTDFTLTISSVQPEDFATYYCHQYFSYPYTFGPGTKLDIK

[out]
1: 0.000216; 2: 0.000101; 3: 0.000318

Values from patent US20200399381A1
